runDescription: protein stability index of a GFP-peptide fusion (GPS, HEK-293T) (PSI 1-6); higher = more stable;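 note: 24-mer peptide tiles fused after GFP, lentivirally expressed, FACS-sorted into six equal bins by GFP/DsRed ratio, decoded by Illumina sequencing, PSI is the read-weighted mean bin number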
testConditions: treatment: MLN4924 1 uM, 8 h; c terminus: a fixed tail appended
protein stability index of 4 or higher: Criterion met. Under 4: Criterion not met.

{"macromoleculeSequence": "AAAGEQASGAEAEPGPAGPPPPPS [BTBD1]", "assignedCategory": "Criterion met"}
{"macromoleculeSequence": "WKSHLRNVQRPLLQAPFLPPKPPP [RHOBTB2]", "assignedCategory": "Criterion not met"}
{"macromoleculeSequence": "GFHKAGSMLPPVNFSIVPYEKKFD [SPATS1]", "assignedCategory": "Criterion not met"}
{"macromoleculeSequence": "GASSREEPPEEPEQCPVIDSQAPA [SPDEF]", "assignedCategory": "Criterion met"}
{"macromoleculeSequence": "SSHLQSSKAGPTRIFTSNTHSSVV [KLHL13]", "assignedCategory": "Criterion not met"}
{"macromoleculeSequence": "EYDDDDSAASTSFQPQPVQPQQGY [ZNF207]", "assignedCategory": "Criterion met"}
